- Condition notes: in isopropanol, 325.8 K
Measurement label: solubility (mole fraction)

Note solubility (mole fraction) for the molecule shown: `CC(=O)Oc1ccccc1C(=O)O`
0.143

###

- Condition notes: in propylene glycol, 327.9 K
Measurement label: solubility (mole fraction)
Note: the reply should be a number with no unit written.

Report solubility (mole fraction) for `CC(=O)Oc1ccccc1C(=O)O`
0.112

###

- Condition notes: in acetone, 304.4 K
Measurement label: solubility (mole fraction)

Provide one value: measured solubility (mole fraction) of `CC(=O)Oc1ccccc1C(=O)O`
0.101

###

- Condition notes: in ethanol, 302.4 K
Measurement label: solubility (mole fraction)

Name the recorded solubility (mole fraction) of the molecule listed here: `CC(=O)Oc1ccccc1C(=O)O`
0.071
